Run description: melting temperature; fluorescence melt of hairpins on a sequencing array, two-state fit, raised by 9.35 °C to match UV melts
Study conditions: sodium 0.088 M
Recorded endpoint: Tm (°C)
Numbers only, in °C.

Dear colleague, could you please provide Tm for the sequences listed below?
1. GCTGGCTCGAAAGAGAGC (((..(((....))))))
2. GAGAGAGGAAACTCTTTC ((.((((....)))).))
3. GTCGAGCCGAAAGGCGAC (((..(((....))))))
4. GTTTCCGGAAACGGAAGC (.(((((....))))).)
5. GTCAAACCGAAAGGTGAC (((..(((....))))))
6. GTCTCTCGAAAGAGTGAC (((.(((....))).)))

Response:
1: 36.9; 2: 29.9; 3: 50.3; 4: 49.3; 5: 45.4; 6: 49.7
